Listing: MIC of selected compounds
test system: Staphylococcus aureus; assay: Antimicrobial activity against mupirocin-resistant methicillin-resistant Staphylococcus aureus by broth microdilution method; assay type: functional

Form field: MIC recorded for CO[C@H]1/C=C/O[C@@]2(C)Oc3c(C)c(O)c4c(O)c(c(/C=N/N5CCN(C)CC5)c(O)c4c3C2=O)NC(=O)/C(C)=C\C=C\[C@H](C)[C@H](O)[C@@H](C)[C@@H](O)[C@@H](C)[C@H](OC(C)=O)[C@@H]1C with Staphylococcus aureus (enter value) ≥ 512 mg/L

Form field: MIC recorded for CC[C@H]1OC(=O)[C@H](C)[C@@H](O[C@H]2C[C@@](C)(OC)[C@@H](O)[C@H](C)O2)[C@H](C)[C@@H](O[C@@H]2O[C@H](C)C[C@H](N(C)C)[C@H]2O)[C@](C)(O)C[C@@H](C)C(=O)[C@H](C)[C@@H](O)[C@]1(C)O with Staphylococcus aureus (enter value) ≥ 512 mg/L

Form field: MIC recorded for CCC[C@@H]1C[C@@H](C(=O)N[C@@H]([C@H]2O[C@H](SC)[C@H](O)[C@@H](O)[C@H]2O)[C@H](C)Cl)N(C)C1 with Staphylococcus aureus (enter value) ≥ 512 mg/L
